Sourced from ChEMBL document CHEMBL1201862

# GI50 annotations
System: BT-549
assay.explanation: NCI tumour cell line growth inhibition, 48 h
Active and inactive are the calls of the source. Rule as the data show it: active = GI50 up to about 1.1 µM and inactive = higher.

Guide cases for GI50, answers given:
compound | measured
O=C1/C(=N\NC(=S)NC2CCCCC2)c2cc([N+](=O)[O-])ccc2N1CN1CCOCC1 | 4.86 µM (inactive)
CC1=CC(=O)/C(=C/NC(=S)Nc2ccccc2)C(=O)O1 | > 100 µM (inactive)
O=C1C[C@H](Sc2ccccc2)C2(OCCO2)[C@H]2ON3CCC[C@@H]3[C@@H]12 | 4.56 µM (inactive)
CC(C)(C)OC(=O)N(CCCN)CCCCN | > 100 µM (inactive)
CC[n+]1[b-](C(C)(C)C)n(/N=C(\C)C(C)(C)C)[b-](C(C)(C)C)[n+]1CC | > 100 µM (inactive)
Cc1ccc(S(=O)(=O)NC(=O)C2C(=O)CC3(CCCCC3)CC2=O)cc1 | 27.5 µM (inactive)
Cn1c2cc(Cl)ccc2c2ccc3c(c21)C(=O)C=CC3=O | 25.6 µM (inactive)
CCC1=C(C)C(=O)N/C1=C\c1[nH]c(C)c([C@H](C)CCN)c1C | 16.3 µM (inactive)

GI50 reported for this compound Cc1ccc(/N=C/C=C(\Nc2ccc(C)cc2)c2ccc3ccccc3c2)cc1 : 2.33 µM (inactive)

GI50 reported for this compound Nc1nc(Cl)cc(NCC2(CO)CC(Cc3ccccc3)C2)n1 (stereo not given) : 20.4 µM (inactive)

###

System: CAKI-1
assay.explanation: NCI tumour cell line growth inhibition, 48 h
The source made the active and inactive calls. Cut-off read from the data, not from the text of the source: active = GI50 up to about 1.1 µM and inactive = higher.
# GI50 annotations

GI50 reported for this compound O=C1C=C[C@@H](COC2OC(CO)C(O)C(O)C2O)O1 (stereo partly specified) : 17.9 µM (inactive)

###

Tested on: SF-295
assay.explanation: NCI tumour cell line growth inhibition, 48 h
Active and inactive are the calls of the source. No stated cut-off is given here; in the data, active = GI50 up to about 1.1 µM and inactive = higher. Numbered stars: 1 amine (or outer) side, 2 acyl side, 3 side chain; on linkers, the order of the positions; unused ones are H or OH. Bridge positions count the residues as written; N and C are the ends. Square brackets hold non-standard residues; d marks the D form. Peptide text beside a SMILES is read from it. I, II: the chains in the order shown. Actinocin(9to1) = Cc1c2oc3c(C)ccc(C(=O)[*:1])c3nc-2c(C(=O)[*:2])c(N)c1=O; NMeH = CN[CH](Cc1c[nH]cn1)C(=O)O; Sar = CNCC(=O)O
Answer with one of the outcomes active, inactive

Here are 2 molecules together with their reported answers.
molecule | category.label
CCCn1c(CN(Cc2nc3ccccc3n2CCC)Cc2nc3ccccc3n2CCC)nc2ccccc21 | inactive
Cc1c2oc3c(C)ccc(C(=O)NC4C(=O)NC(C(C)C)C(=O)N5CCCC5C(=O)N(C)CC(=O)N(C)C(Cc5cnc[nH]5)C(=O)OC4C)c3nc-2c(C(=O)NC2C(=O)NC(C(C)C)C(=O)N3CCCC3C(=O)N(C)CC(=O)N(C)C(Cc3cnc[nH]3)C(=O)OC2C)c(N)c1=O (centres undefined) (I: TVP[Sar][NMeH] / II: TVP[Sar][NMeH]; ester I:1-I:C, II:1-II:C; linker I:N-II:N via Actinocin(9to1); configuration not given here) | inactive

Problem: Kindly provide the recorded test outcome for the following molecule: Cc1csc2[n+]1C(=O)/C(=C\c1ccc([N+](=O)[O-])cc1)S2
Result: inactive

Problem: Kindly provide the recorded test outcome for the following molecule: CCC1(CC)C(=O)N(C(=O)c2ccc(C)cc2)N(C(=O)c2ccc(C)cc2)C1=O
Result: inactive

Problem: Kindly provide the recorded test outcome for the following molecule: Cc1c(C#N)c2nnn(C)c(=O)n2c1-c1ccccc1
Result: inactive

###

# GI50 annotations
Test system: NCI-H226
assay.explanation: NCI tumour cell line growth inhibition, 48 h
The source made the active and inactive calls. Cut-off read from the data, not from the text of the source: active = GI50 up to about 1.1 µM and inactive = higher.

Guide cases for GI50, answers given:
molecule | target | measured
O=C(CN1CCCCC1)CC(O)(C(F)(F)F)C(F)(F)F | NCI-H226 | > 100 µM (inactive)
O=C(/C=C/c1ccc2c(c1)OCO2)NCc1ccco1 | NCI-H226 | > 100 µM (inactive)
Cc1ccc(NNc2cc(=O)[nH]c(=O)[nH]2)cc1Cl | NCI-H226 | 56.9 µM (inactive)
Cc1nc(C(N)=S)sc1C(=O)CC(=O)C(=O)Nc1cccc(Cl)c1C | NCI-H226 | > 100 µM (inactive)
CCOC(=O)C(Cc1ccc(O)cc1)Nc1nc(=O)c2c(=O)oc(Cl)cc2o1 (stereo not given) | NCI-H226 | 19.7 µM (inactive)
N#CCCN(c1ccc(/C=N/c2ccc(C(=O)O)cc2)cc1)S(=O)(=O)c1ccccc1 | NCI-H226 | > 100 µM (inactive)
COc1cc2ncnc(NS(=O)(=O)c3cc4ccccc4s3)c2cc1OC | NCI-H226 | > 100 µM (inactive)
Nc1[nH]nc2ccccc12 | NCI-H226 | > 100 µM (inactive)

GI50 reported for this molecule C=C(C(=O)OC)[C@H]1CC/C(C)=C/CC[C@@](C)(O)C=CC[C@@]2(C)O[C@@H]2C1 : > 100 µM (inactive)

GI50 reported for this molecule C=CCc1ccc(Oc2cc(CC=C)c3c(c2O)O[C@@H](CO)[C@H]3c2ccc(O)c(-c3cc(CC=C)ccc3O)c2)cc1 : 67.1 µM (inactive)

###

System: LOX IMVI
assay.explanation: NCI tumour cell line growth inhibition, 48 h
Calls of active or inactive are those of the source. No stated cut-off is given here; in the data, active = GI50 up to about 1.1 µM and inactive = higher.
# GI50 annotations

Guide cases for GI50, answers given:
molecule | property.label | measured
COc1cc(C2S/C(=C/c3ccccc3)C(=O)N2Cc2ccccc2)cc(OC)c1OC (stereo unspecified) | GI50 | 32.1 µM (inactive)
c1cnc2c(c1)-n1cccc1C1(CCSCC1)NN2 | GI50 | 68.7 µM (inactive)
CS/C(=N\S(=O)(=O)c1ccc(Cl)cc1)NCCN/C(=N/S(=O)(=O)c1ccc(Cl)cc1)SC | GI50 | > 100 µM (inactive)
C#CCOC(=O)C=[N+]=[N-] | GI50 | > 10 µM (inactive)
Cc1cc(C(F)(F)F)cc(-n2nc(NS(=O)(=O)c3cc(C)c(Cl)cc3S)nc2N)n1 | GI50 | 18.7 µM (inactive)

GI50 reported for this molecule COc1cc2c3c(n(C)c(=O)c2cc1OC)-c1cc2c(cc1/C3=C/CCCCBr)OCO2 : 62.8 µM (inactive)

###

System: NCI-H226
assay.explanation: NCI tumour cell line growth inhibition, 48 h
Active and inactive are the calls of the source. No stated cut-off is given here; in the data, active = GI50 up to about 1.1 µM and inactive = higher.
Answer with one of the outcomes active, inactive

Here are 6 compounds together with their reported answers.
compound | category.label
S=C(N/N=C(/c1ccccc1)c1ccccn1)N1CCCCC1 | active
Cc1nnc2c3nnc(C)n3c3ccccc3n12 | inactive
O=C1CC2(CCNCC2)C(=O)N1N1CCCC1 | inactive
O=C(O)c1ccc([Se][Se]c2ccc(C(=O)O)cc2)cc1 | inactive
Fc1ccc(C2(CCCN3CCc4[nH]c5cc(F)ccc5c4C3)OCCO2)cc1 | inactive
CC(=O)Nc1cc2c(cc1O)CC[C@@H]1[C@@H]2CC[C@]2(C)[C@@H](O)CC[C@@H]12 | inactive

Problem: Kindly provide the recorded test outcome for the following compound: CC(C)C1CNC2N1C(=O)C2(C)OCc1ccccc1 (configuration not stated)
Result: inactive

Problem: Kindly provide the recorded test outcome for the following compound: CSC(=S)Nc1cccc(C)n1
Result: inactive

Problem: Kindly provide the recorded test outcome for the following compound: CCOC(=O)C1=CC(C)(C(=O)OCC)Nc2c(nc(N)[nH]c2=O)N1 (configuration not stated)
Result: inactive

Problem: Kindly provide the recorded test outcome for the following compound: O=C(O)c1nc2ccc(C(F)(F)F)cc2nc1NCc1ccc(F)cc1
Result: inactive

Problem: Kindly provide the recorded test outcome for the following compound: O=C1/C(=C/c2cccc(O)c2)COc2ccccc21
Result: inactive

Problem: Kindly provide the recorded test outcome for the following compound: CC1(C)CCCC2(C)[C@@H]1CC[C@]13C[C@](C)(CC[C@@H]21)[C@@H]3CO (some centres not stated)
Result: inactive

Problem: Kindly provide the recorded test outcome for the following compound: C=C(C1=CC(=O)C(C)(C)O1)[C@@H]1CC=C([C@@H]2CC[C@H]3[C@@]2(C)CC[C@H]2C(C)(C)C(=O)[C@H](OC(=O)CC(C)(O)CC(=O)O)C[C@]32C)[C@H](O)O1 (some centres not stated)
Result: inactive

Problem: Kindly provide the recorded test outcome for the following compound: c1ccc([P+](CCCCCC[P+](c2ccccc2)(c2ccccc2)c2ccccc2)(c2ccccc2)c2ccccc2)cc1
Result: inactive

###

Tested on: CAKI-1
assay.explanation: NCI tumour cell line growth inhibition, 48 h
Active and inactive are the calls of the source. Cut-off read from the data, not from the text of the source: active = GI50 up to about 1.1 µM and inactive = higher.
property.label: GI50

compound | property.label | measured
O=C1C2=C(c3ccccc31)C(c1ccccc1)NC(S)=N2 (stereo unspecified) | GI50 | 48.8 µM (inactive)
O=C1N[C@@H](COc2ccc(/C=N/c3ccc(CCc4ccc(/N=C/c5ccc(OC[C@@H]6COC(=O)N6)cc5)cc4)cc3)cc2)CO1 | GI50 | > 100 µM (inactive)
Cc1c(Cl)ccc2c(=O)c3cccc(CC(=O)O)c3oc12 | GI50 | > 100 µM (inactive)
CC1=Nc2ccccc2SC(c2c(Cl)cccc2Cl)C1 (stereo unspecified) | GI50 | 2.1 µM (inactive)
CC1=NC(=Cc2ccc([N+](=O)[O-])cc2)C(=O)N1n1c(-c2ccccc2)nc2ccccc2c1=O | GI50 | 35.2 µM (inactive)
C=CC/N=C1\N=C(C)C(C(=O)OCC)S1 (stereo unspecified) | GI50 | > 100 µM (inactive)
CC(=O)OCC12CN(C#N)C3C4COC(CC41)C1(C(=O)N(C)c4ccccc41)C32 (stereo unspecified) | GI50 | 17.3 µM (inactive)
Cc1ccc(CC(C)N)cc1 (stereo unspecified) | GI50 | > 100 µM (inactive)
COC(=O)c1ccccc1C1CN=NC12Cc1ccc3ccccc3c1C2=O (stereo unspecified) | GI50 | > 100 µM (inactive)
CC1=CC[C@](C)(O)[C@@]2(C)CC[C@H]3C(=C(C)C)C(=O)C[C@]3(C)C[C@H]12 | GI50 | 16 µM (inactive)

GI50 reported for this compound O=C(CN1CCCCC1)CC(O)(C(F)(F)F)C(F)(F)F : > 100 µM (inactive)

GI50 reported for this compound Cc1cc(C(F)(F)F)cc(-n2nc(NS(=O)(=O)c3cc(C)c(Cl)cc3S)nc2N)n1 : 7.46 µM (inactive)

GI50 reported for this compound CC(C)C1=CC(=O)C(C)(C2=NC(C)(C)CO2)c2ccccc21 (stereo unspecified) : > 100 µM (inactive)

GI50 reported for this compound Cc1cc2c3c(c1)S(=O)(=O)c1cc(Cl)ccc1N3CCC2 : > 100 µM (inactive)

GI50 reported for this compound CCOc1ccccc1/N=N/c1ccc2oc(=O)c(C(C)=O)cc2c1 : > 100 µM (inactive)

GI50 reported for this compound O=c1cc(NNc2cccc3ccccc23)[nH]c(=O)[nH]1 : 14.7 µM (inactive)
